PARTICULARS: Ebola virus entry assay, reporter ratio channel; Channel type: primary
Activity calls are given as the source filed them.
Documented AC50 across a set of compounds

These solved cases illustrate the format of a correct answer.
>>> experimental_value("COCCCC/C(=N\\OCCN)c1ccc(C(F)(F)F)cc1")
"14.1 µM (active)"
>>> experimental_value("CNCCCC1c2ccccc2C=Cc2ccccc21")
"8.91 µM (active)"
>>> experimental_value("CC(CN1c2ccccc2Sc2ccccc21)N(C)C (stereo not given)")
"31.6 µM (active)"
>>> experimental_value("COC(=O)Nc1nc2ccc(C(=O)c3ccccc3)cc2[nH]1")
"1.26 µM (active)"
>>> experimental_value("OC1(c2ccc(Cl)c(C(F)(F)F)c2)CCN(CCCC(c2ccc(F)cc2)c2ccc(F)cc2)CC1")
"2.82 µM (active)"

Alright, here's another compound for you.
Q. Requested field: AC50. Item: C#CCOC(C(=O)OCCN(C)C)(c1ccccc1)c1ccccc1
A. 14.1 µM (active)

###

SYSTEM_TESTED: ATPase family AAA domain-containing protein 5 (Homo sapiens) (UniProt Q96QE3)
Sequence (Q96QE3 whole entry, looked up, the tested form may be a part): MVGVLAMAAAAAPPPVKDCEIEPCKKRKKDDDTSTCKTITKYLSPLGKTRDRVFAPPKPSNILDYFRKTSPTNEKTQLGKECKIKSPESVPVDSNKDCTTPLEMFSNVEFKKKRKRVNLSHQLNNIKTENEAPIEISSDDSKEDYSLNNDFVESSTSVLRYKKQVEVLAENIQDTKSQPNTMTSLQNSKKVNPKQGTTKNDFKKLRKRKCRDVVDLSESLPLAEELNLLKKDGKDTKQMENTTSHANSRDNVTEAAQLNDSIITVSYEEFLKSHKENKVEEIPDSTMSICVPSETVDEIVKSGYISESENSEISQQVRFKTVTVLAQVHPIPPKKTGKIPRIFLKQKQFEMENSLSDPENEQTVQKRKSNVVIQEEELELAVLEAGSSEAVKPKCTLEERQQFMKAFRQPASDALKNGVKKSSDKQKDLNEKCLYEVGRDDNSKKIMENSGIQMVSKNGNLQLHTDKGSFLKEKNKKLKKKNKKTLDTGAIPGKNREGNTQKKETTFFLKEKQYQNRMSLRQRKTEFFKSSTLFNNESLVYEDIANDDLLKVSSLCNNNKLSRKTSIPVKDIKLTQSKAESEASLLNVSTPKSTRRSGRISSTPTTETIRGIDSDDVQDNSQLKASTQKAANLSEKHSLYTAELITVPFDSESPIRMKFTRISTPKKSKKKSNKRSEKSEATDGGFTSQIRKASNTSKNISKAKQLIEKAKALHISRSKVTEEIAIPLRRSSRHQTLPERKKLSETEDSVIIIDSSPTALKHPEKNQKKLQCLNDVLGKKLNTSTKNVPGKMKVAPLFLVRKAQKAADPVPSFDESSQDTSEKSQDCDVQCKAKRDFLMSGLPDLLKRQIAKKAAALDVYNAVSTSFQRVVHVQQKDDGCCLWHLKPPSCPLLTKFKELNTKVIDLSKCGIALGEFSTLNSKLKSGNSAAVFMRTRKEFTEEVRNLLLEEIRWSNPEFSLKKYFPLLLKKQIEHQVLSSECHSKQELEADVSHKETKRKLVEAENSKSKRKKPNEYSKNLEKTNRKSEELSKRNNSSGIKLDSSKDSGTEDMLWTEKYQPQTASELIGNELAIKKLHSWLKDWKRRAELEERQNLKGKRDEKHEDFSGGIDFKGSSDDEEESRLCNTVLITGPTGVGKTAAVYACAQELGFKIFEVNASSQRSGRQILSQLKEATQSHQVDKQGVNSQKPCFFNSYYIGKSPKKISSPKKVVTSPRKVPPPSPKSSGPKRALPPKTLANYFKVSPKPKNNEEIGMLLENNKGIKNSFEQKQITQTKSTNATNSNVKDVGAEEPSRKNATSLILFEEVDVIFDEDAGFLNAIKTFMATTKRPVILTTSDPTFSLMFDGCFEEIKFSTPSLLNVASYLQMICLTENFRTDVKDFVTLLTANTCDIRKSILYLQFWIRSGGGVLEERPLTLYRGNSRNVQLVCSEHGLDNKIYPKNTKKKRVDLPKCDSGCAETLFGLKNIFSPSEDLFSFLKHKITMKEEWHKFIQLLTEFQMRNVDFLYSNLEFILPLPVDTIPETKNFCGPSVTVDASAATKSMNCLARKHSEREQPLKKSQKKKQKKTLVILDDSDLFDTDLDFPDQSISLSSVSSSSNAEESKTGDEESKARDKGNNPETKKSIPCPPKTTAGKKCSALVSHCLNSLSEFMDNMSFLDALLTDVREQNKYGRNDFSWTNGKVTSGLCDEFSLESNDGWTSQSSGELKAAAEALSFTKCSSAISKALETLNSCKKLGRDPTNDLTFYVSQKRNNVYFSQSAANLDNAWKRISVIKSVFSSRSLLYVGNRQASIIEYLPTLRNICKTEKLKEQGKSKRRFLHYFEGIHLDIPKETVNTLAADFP
PROTOCOL_TEXT: Validation screen for small molecules that inhibit ELG1-dependent DNA repair in human embryonic kidney (HEK293T) cells expressing luciferase-tagged ELG1 (AID 493107); further: nearly all actives have a fitted effect of over 70% in size
PARTICULARS: HEK293T ELG1-luciferase level, luminescence, 5-fluorouridine co-treatment, 16 h; series mostly up to 46.1 µM
Records with an inconclusive call do not appear. The source made the active and inactive calls. The call rests on the fitted dose curve; in most records, active means well fitted inhibition curve with a large enough effect; inconclusive means small, poorly fitted or top-dose-only effect, or effect the other way; inactive means flat fitted curve, though single readings scatter.
Field 'call' accepts active, inactive

>>> discrete_label("Cc1cc2c(C(C)C)c(O)c(O)c(C=O)c2c(O)c1-c1c(C)cc2c(C(C)C)c(O)c(O)c(C=O)c2c1O")
"active"
>>> discrete_label("NCC1(CC(=O)O)CCCCC1")
"inactive"
>>> discrete_label("Cc1cccc(C)c1NC(=O)CN1CCCC1=O")
"inactive"
>>> discrete_label("O=c1[nH]c2ccccc2n1CCCN1CCC(n2c(=O)[nH]c3cc(Cl)ccc32)CC1")
"active"
>>> discrete_label("CC(C)=CCOc1c2occc2cc2ccc(=O)oc12")
"inactive"

Q. Per the assay record, what outcome was assigned to COc1ccccc1N1CCNCC1 ?
A. inactive

Q. Next compound up: CCCN1CCC[C@@H]2Cc3[nH]ncc3C[C@H]21
A. inactive

Q. Next compound up: CC(=O)[C@H]1CC[C@H]2[C@@H]3CC[C@H]4C[C@](C)(O)CC[C@]4(C)[C@H]3CC[C@]12C
A. inactive

Q. Next compound up: CC(CCc1ccccc1)NC(C)C(O)c1ccc(O)cc1 (configuration not stated)
A. inactive

Q. Next compound up: CC[C@@H](CO)NC(=O)[C@@H]1C=C2c3cccc4c3c(cn4C)C[C@H]2N(C)C1
A. inactive

Q. Next compound up: C[C@@H]1O[C@@H](O[C@H]2C[C@@H](O)[C@]3(CO)[C@H]4[C@H](O)C[C@]5(C)[C@@H](C6=CC(=O)OC6)CC[C@]5(O)[C@@H]4CC[C@]3(O)C2)[C@H](O)[C@H](O)[C@H]1O
A. active

Q. Next compound up: c1ccc(C2CC2)c(OCC2=NCCN2)c1
A. inactive

###

PROTOCOL_TEXT: Primary qHTS for inhibitors of nuclear receptor binding SET domain protein 2 (NSD2) in an isogenic RCH-ACV NSD2 p.E1099K mutant (9B) (AID 1645876); further: nearly all actives have a fitted effect of over 70% in size
PARTICULARS: RCH-ACV (leukaemia line) NSD2 E1099K (9B) viability, CellTiter-Glo, 72 h; series mostly up to 44.9 µM
Records with an inconclusive call do not appear. The source made the active and inactive calls. The call rests on the fitted dose curve; in most records, active means well fitted inhibition curve with a large enough effect; inconclusive means small, poorly fitted or top-dose-only effect; inactive means flat fitted curve, though single readings scatter.
Field 'call' accepts label 1 (active), label 0 (inactive)

Q. Per the assay record, what outcome was assigned to CC1OC(C)OC(C)O1 (stereo not given) ?
A. label 0

Q. Next compound up: CC(C)NCC(O)c1ccccc1Cl (stereo not given)
A. label 0

Q. Next compound up: O=C(O)c1ccc2[nH]cc(CCCCN3CC=C(c4ccccc4)CC3)c2c1
A. label 0
